assay: Cellular uptake in human NHBE at 3 to 20 uM after 3 hrs by LC-MS/MS analysis relative to azithromycin; type: ADME
Result type: Drug uptake (%)

| Given smiles | Result type | Scale unit | Value |
| --- | --- | --- | --- |
| CCCCCCCC(=O)NCCCN(C)[C@H]1C[C@@H](C)O[C@@H](O[C@@H]2[C@@H](C)[C@H](O[C@H]3C[C@@](C)(OC)[C@@H](O)[C@H](C)O3)[C@@H](C)C(=O)O[C@H](CC)[C@@](C)(O)[C@H](O)[C@@H](C)N(C)C[C@H](C)C[C@@]2(C)O)[C@@H]1O | Drug uptake | % | 422 |
| CC[C@H]1OC(=O)[C@H](C)[C@@H](O[C@H]2C[C@@](C)(OC)[C@@H](OC(=O)CN(CC)CC)[C@H](C)O2)[C@H](C)[C@@H](O[C@@H]2O[C@H](C)C[C@H](N(C)C)[C@H]2O)[C@](C)(OC)C[C@@H](C)C(=O)N[C@H](C)[C@@H](O)[C@]1(C)O | Drug uptake | % | 101 |
| CC[C@H]1OC(=O)[C@H](C)[C@@H](O[C@H]2C[C@@](C)(OC)[C@@H](O)[C@H](C)O2)[C@H](C)[C@@H](O[C@@H]2O[C@H](C)C[C@H](N(C)C)[C@H]2O)[C@](C)(O)C[C@@H](C)CN(C)[C@H](C)[C@@H](O)[C@]1(C)O | Drug uptake | % | 100 |
| CC[C@H]1OC(=O)[C@H](C)[C@@H](O[C@H]2C[C@@](C)(OC)[C@@H](O)[C@H](C)O2)[C@H](C)[C@@H](O[C@@H]2O[C@H](C)C[C@H](N(C)C)[C@H]2O)[C@](C)(OC)C[C@@H](C)C(=O)[C@H](C)[C@@H](O)[C@]1(C)O | Drug uptake | % | 25 |
| CC[C@H]1OC(=O)[C@H](C)[C@@H](O[C@H]2C[C@@](C)(OC)[C@@H](O)[C@H](C)O2)[C@H](C)[C@@H](O[C@@H]2O[C@H](C)C[C@H](N(C)C)[C@H]2O)[C@](C)(OC)C[C@@H](C)C(=O)N[C@H](C)[C@@H](O)[C@]1(C)O | Drug uptake | % | 11 |
| CCCCCCCC(=O)NCCCN1C[C@H](C)C[C@@](C)(O)[C@H](O[C@@H]2O[C@H](C)C[C@H](N(C)C)[C@H]2O)[C@@H](C)[C@H](O[C@H]2C[C@@](C)(OC)[C@@H](O)[C@H](C)O2)[C@@H](C)C(=O)O[C@H](CC)[C@@](C)(O)[C@H](O)[C@H]1C | Drug uptake | % | 135 |
| CC[C@H]1OC(=O)[C@H](C)[C@@H](O)[C@H](C)[C@@H](O[C@@H]2O[C@H](C)C[C@H](N(C)C)[C@H]2O)[C@](C)(O)C[C@@H](C)CN(C)[C@H](C)[C@@H](O)[C@]1(C)O | Drug uptake | % | 52 |
| CC[C@H]1OC(=O)[C@H](C)[C@@H](O)[C@H](C)[C@@H](O)[C@](C)(O)C[C@@H](C)CN(C)[C@H](C)[C@@H](O)[C@]1(C)O | Drug uptake | % | 8 |
